Ref: patent US10611778B2

Biological target: Menin/MLL (terbium chelate-labeled menin, FITC-MBM1 peptide) (Homo sapiens, UniProt O00255, T541A)
Construct: Menin (a.a. 1-610-6×his tag) was labeled with terbium cryptate as follows
Sequence (O00255 with tags, fused parts or gaps T541A): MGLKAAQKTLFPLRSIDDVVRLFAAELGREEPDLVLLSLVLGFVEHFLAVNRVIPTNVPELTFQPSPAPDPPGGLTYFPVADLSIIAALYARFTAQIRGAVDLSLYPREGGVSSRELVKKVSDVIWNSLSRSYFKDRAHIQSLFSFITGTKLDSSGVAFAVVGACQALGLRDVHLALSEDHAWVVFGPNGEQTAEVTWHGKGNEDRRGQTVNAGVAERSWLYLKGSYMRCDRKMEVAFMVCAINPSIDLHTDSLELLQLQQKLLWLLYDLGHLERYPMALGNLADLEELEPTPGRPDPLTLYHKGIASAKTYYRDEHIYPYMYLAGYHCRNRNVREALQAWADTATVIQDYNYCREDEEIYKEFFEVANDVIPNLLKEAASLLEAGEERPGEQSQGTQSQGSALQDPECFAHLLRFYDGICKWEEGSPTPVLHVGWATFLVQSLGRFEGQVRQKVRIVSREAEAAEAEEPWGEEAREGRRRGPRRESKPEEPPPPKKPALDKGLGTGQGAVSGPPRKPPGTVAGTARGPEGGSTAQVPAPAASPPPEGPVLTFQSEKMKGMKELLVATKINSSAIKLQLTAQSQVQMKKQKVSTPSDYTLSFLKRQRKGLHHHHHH
Experiment: Menin/MLL homogenous time-resolved fluorescence (HTRF) assay
Assay type: binding
Settings: averaged values over all measurements; read-out: Menin HTRF assay (IC50)
Measured Property: pIC50
Would you please state pIC50, meaning minus log10 of the concentration in mol/L, as a bare number?

Input line: For the compound FC(F)(F)Cc1cc2c(N3CC[C@@H]4[C@@H](CCN4Cc4ccccc4)C3)ncnc2s1 (single isomer, unassigned) , what pIC50 is on record?
Output line: 7.21

Input line: Further, for FC(F)(F)Cc1cc2c(N3C[C@H]4CCN(Cc5ccc(C6CC6)nc5)C[C@H]4C3)ncnc2s1 (single isomer, unassigned) ?
Output line: 7.62

Input line: Further, for CC(=O)N1CCC(CN2CC[C@@H]3CN(c4ncnc5sc(CC(F)(F)F)cc45)C[C@@H]3C2)CC1 (single isomer, unassigned) ?
Output line: 6.98

Input line: Further, for CC(C)[C@H](c1cnn(C)c1)N1CC[C@H]2CN(c3ncnc4sc(CC(F)(F)F)cc34)C[C@H]2C1 (single isomer, unassigned) [Compound 78A] ?
Output line: 6.28

Input line: Further, for FC(F)(F)Cc1cc2c(N3C[C@H]4CCN(Cc5ccccc5)C[C@H]43)ncnc2s1 (single isomer, unassigned) ?
Output line: 5.96

Input line: Further, for O=c1ccc(CN2CC[C@@H]3CN(c4ncnc5sc(CC(F)(F)F)cc45)C[C@@H]3C2)c[nH]1 (single isomer, unassigned) ?
Output line: 7.57

Input line: Further, for Cn1ccc(CN2CC[C@@H]3CN(c4ncnc5sc(CC(F)(F)F)cc45)C[C@@H]3C2)cc1=O (single isomer, unassigned) ?
Output line: 6.58

Input line: Further, for Cn1cc(CN2CCC3CN(c4ncnc5sc(CC(F)(F)F)cc45)CC3C2)cn1 (stereo not drawn) ?
Output line: 7.15

Input line: Further, for Cn1cc(CN2CC[C@H]3CN(c4ncnc5sc(CC(F)(F)F)cc45)C[C@H]3C2)cn1 (single isomer, unassigned) [Compound 71B] ?
Output line: 7.27

Input line: Further, for CC(C)[C@@H](c1cnn(C)c1)N1CC[C@H]2CN(c3ncnc4sc(CC(F)(F)F)cc34)C[C@H]2C1 (single isomer, unassigned) [Compound 78B] ?
Output line: 5.88

Input line: Further, for O=C([C@@H]1CC2(CC2)CN1)N1CC[C@@H]2CN(c3ncnc4sc(CC(F)(F)F)cc34)C[C@@H]2C1 (single isomer, unassigned) ?
Output line: 6.39

Input line: Further, for O=C(c1ccncc1)N1CCC(CN2CC[C@@H]3CN(c4ncnc5sc(CC(F)(F)F)cc45)C[C@@H]3C2)CC1 (single isomer, unassigned) ?
Output line: 7.64
